- Tested on: clone 5 (RNA, aptamer) GGAGCUCAGCCUUCACUGCGGUUGCCCUCCGUGCUUCAUGCUUCCCUGCUUCGGCAGUCGCGGUAAACCGUAGAGAAAGUUGAGGCACCACGGUCGGAUCCAC
- measurement.protocol: fluorescence increase titration
- experimental.context: 125 mM KCl, 5 mM MgCl2; 20 mM Hepes pH 7.4, 25°C; probe 1 µM
endpoint: KD (µM)

- compound.structure: "CCN(CC)c1ccc2c(-c3ccc(S(=O)(=O)NCCOCCOCCNc4ccc([N+](=O)[O-])cc4[N+](=O)[O-])cc3S(=O)(=O)[O-])c3ccc(=[N+](CC)CC)cc-3oc2c1"
  KD [µM]: 20.1

[a] O=[N+]([O-])c1ccc(NCCOCCOCCNS(=O)(=O)c2ccc(C3=c4cc5c6c(c4Oc4c3cc3c7c4CCCN7CCC3)CCC[N+]=6CCC5)c(S(=O)(=O)[O-])c2)c([N+](=O)[O-])c1
[b] O=C(NCCOCCOCCNc1ccc([N+](=O)[O-])cc1[N+](=O)[O-])c1ccc(-c2c3ccc(=O)cc-3oc3cc(O)ccc23)c(C(=O)O)c1
[c] CN(C)c1ccc2c(-c3ccc(C(=O)NCCOCCOCCNc4ccc([N+](=O)[O-])cc4[N+](=O)[O-])cc3C(=O)[O-])c3ccc(=[N+](C)C)cc-3oc2c1
Challenge: // ranking: key=KD, reverse=True Form field (ranking): labels in requested order.
Response given: a, b, c
(a: 52.6 µM, b: 27.2 µM, c: 7.77 µM)
